procedure details: 14-day oral gavage toxicokinetic study in rats
Format: in vivo
test parameters: both sexes, rat, plasma, po, 5 mg/kg, Mean Compound 1 Plasma Concentration, rats, oral 5 mg/kg, Day 14, 8 h, Overall
experimental endpoint: concentration at 8 h (ng/mL)
Quick reminder: number only, in ng/mL, skip the unit.

Find the recorded concentration at 8 h belonging to "CN1CCN(c2ccc(Nc3ncc4cc5n(c4n3)C3(CCCCC3)CNC5=O)nc2)CC1" and report it.
262

###

procedure details: 14-day oral gavage toxicokinetic study in rats
Format: in vivo
test parameters: female, rat, plasma, po, 30 mg/kg, Mean Compound 1 Plasma Concentration, rats, oral 30 mg/kg, Day 14, 1 h, Female
experimental endpoint: concentration at 1 h (ng/mL)
Quick reminder: number only, in ng/mL, skip the unit.

Find the recorded concentration at 1 h belonging to "CN1CCN(c2ccc(Nc3ncc4cc5n(c4n3)C3(CCCCC3)CNC5=O)nc2)CC1" and report it.
2230
